The entries below come with measured Ki values attached.
assayedTarget: Cy5-labelled Mcl1 (amino acids 171-321) C286S protein (UniProtKB Q07820) (Homo sapiens (Human), UniProt Q07820, C286S)
Sequence (Q07820 171-321 C286S): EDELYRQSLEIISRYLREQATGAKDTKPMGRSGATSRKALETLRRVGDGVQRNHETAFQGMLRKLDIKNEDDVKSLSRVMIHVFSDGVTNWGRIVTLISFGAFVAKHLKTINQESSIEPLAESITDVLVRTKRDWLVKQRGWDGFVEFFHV
methodSummary: Inhibition of Mcl-1 by the fluorescence quenching assay (Example A, Method B)
Format: binding
Just the number please, in nM, no unit attached.

Consider the following illustrative entries.
| compound | Ki, nM |
| --- | --- |
| C[C@@H](COc1ccnc2c1[C@H](C)CCC2)C[C@H]1Cc2ccc(-c3ccn(C)c3)cc2[C@]12CC[C@@](Nc1cccc(Cl)c1)(C(=O)O)CC2 | 0.246 |
| C[C@@H](COc1ccnc2c1[C@@H](C)CCC2)C[C@H]1Cc2cc3c(cc2[C@]12CC[C@@](Nc1cccc(Cl)c1)(C(=O)O)CC2)OCO3 | 1.55 |

Incoming: Quick one: Ki of C[C@@H](COc1ccnc2c1CCC2(C)O)C[C@H]1Cc2ccccc2[C@]12CC[C@@](Nc1cccc(Cl)c1)(C(=O)O)CC2 (stereo partly drawn) ?
Outgoing: 42.6
